# experimentalSystem: DYRK3 (Homo sapiens, UniProt O43781)
# Construct: purchased Carna Biosciences, Inc. 04-133
# Sequence (O43781 1-568 isoform O43781-2): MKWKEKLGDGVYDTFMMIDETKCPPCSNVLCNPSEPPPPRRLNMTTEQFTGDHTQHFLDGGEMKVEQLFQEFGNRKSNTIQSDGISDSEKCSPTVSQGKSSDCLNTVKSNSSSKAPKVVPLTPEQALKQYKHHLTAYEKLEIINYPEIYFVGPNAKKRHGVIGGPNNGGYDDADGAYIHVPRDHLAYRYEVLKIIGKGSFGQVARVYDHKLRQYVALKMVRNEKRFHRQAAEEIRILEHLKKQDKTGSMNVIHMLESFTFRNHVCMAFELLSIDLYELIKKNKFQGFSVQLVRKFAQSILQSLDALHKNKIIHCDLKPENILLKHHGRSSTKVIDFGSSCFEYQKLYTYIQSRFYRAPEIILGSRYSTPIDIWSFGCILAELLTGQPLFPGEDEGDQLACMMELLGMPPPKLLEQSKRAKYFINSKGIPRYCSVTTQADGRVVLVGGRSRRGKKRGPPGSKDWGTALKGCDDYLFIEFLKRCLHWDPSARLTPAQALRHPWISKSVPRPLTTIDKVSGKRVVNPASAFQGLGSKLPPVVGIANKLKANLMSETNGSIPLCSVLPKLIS
# assayName: Inhibition test on activity of DYRK family, mobility shift assay (MSA): DYRK3
# Format: biochemical
# measurementConditions: MSA, FITC-labeled DYRKtide peptide, ATP 20 μM; read-out: Inhibitory activity DYRK 3 (IC50 class)
pIC50: −log10 of the molar value.
Kindly supply the reported pIC50 values for the records listed here.

### Prompt Output pIC50 of CN1CC[C@@H]2[C@@H](NC(=O)N2c2nc3c4c(ccc3s2)OCC4)C12CC2
### Response 6.00 to 7.00

### Prompt Please supply the value of reported pIC50 for the item CN1CCC[C@@H]2[C@H](C1)NC(=O)N2c1nc2c3c(ccc2s1)OCC3
### Response 6.00 to 7.00

### Prompt Assign pIC50 to the following record: CN1C[C@@H]2[C@H](CC13CC3)NC(=O)N2c1nc2c3c(ccc2s1)OCC3
### Response 6.00 to 7.00

### Prompt Please list pIC50 recorded for the compound O=C1N[C@H]2CCNC3(CC3)[C@H]2N1c1nc2c3c(ccc2s1)OCC3
### Response 6.00 to 7.00

### Prompt Please report pIC50 for the following compound: CCN1CC[C@H]2NC(=O)N(c3nc4c5c(ccc4s3)OCC5)[C@H]2C1 (relative stereo)
### Response ≤ 6.00

### Prompt Please supply the value of reported pIC50 for the item O=C1N[C@@H]2C[C@H](CO)OC[C@@H]2N1c1nc2c3c(ccc2s1)OCC3
### Response ≤ 6.00

### Prompt Look up and state reported pIC50 for CCN1CCC2C(C1)NC(=O)N2c1nc2c3c(ccc2s1)OCC3 (centres unmarked)
### Response 6.00 to 7.00

### Prompt Give a short answer stating reported pIC50 for CC[C@H]1C[C@@H]2[C@H](CO1)NC(=O)N2c1nc2c3c(ccc2s1)OCC3 .
### Response 6.00 to 7.00
